B1: TPR 5TU (parent)
chain: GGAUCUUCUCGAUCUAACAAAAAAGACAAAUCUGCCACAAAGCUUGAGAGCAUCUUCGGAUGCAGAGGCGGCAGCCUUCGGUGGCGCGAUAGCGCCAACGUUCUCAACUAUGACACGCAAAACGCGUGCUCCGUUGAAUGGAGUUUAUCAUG

- Variants of: B1
- Measurement description: polymerase ribozyme fitness, log enrichment relative to wild type (log ratio); higher = more active; in vitro selection for triplet polymerase activity
Fewer inactive variants are shown than the library holds.
Lab note: compare polymerase ribozyme fitness (log ratio) against -3. Equal or greater, write Met. Smaller, write Not met.

[[record]]
mutant = "A24C A49C G84A A97C U130G A137U"
cat = "Not met"

[[record]]
mutant = "A24U U82A C96G"
cat = "Met"

[[record]]
mutant = "C57A C114U"
cat = "Met"

[[record]]
mutant = "G58C G83U C85G"
cat = "Not met"

[[record]]
mutant = "A20G A22C C93A"
cat = "Not met"

[[record]]
mutant = "C14G G83A C96U A110G A142U U148A"
cat = "Not met"


Inquiry: Identify whether the reported polymerase ribozyme fitness (log ratio) of the following variant is -3 or greater: C35A G94C
Reply text: Met

Inquiry: Textbook exercise: given the entry G94A G141C , state whether its polymerase ribozyme fitness (log ratio) is greater than or equal to -3.
Reply text: Met

Inquiry: Is polymerase ribozyme fitness (log ratio) for A24U G58C U104A G141U at or above -3?
Reply text: Met

Inquiry: Assess whether reported polymerase ribozyme fitness (log ratio) for C10U U45A C54A G71C G136U sits at -3 or higher.
Reply text: Not met

Measured values drawn from the RNAGym collection of RNA variant scans (doi:10.1073/pnas.2313332121) for this set.
